Every entry's value here was drawn from paper PMC467089.

- Tested on: HCT116 (colorectal adenocarcinoma)
- measurement_protocol: MTS cytotoxicity assay, HCT116
- Format: cell-based
- conditions: Homo sapiens, HCT-116, 72 h, read-out: IC50 cytotoxic activity HCT116
readout: IC50 (nM)
Just the number please, in nM, no unit attached.

IC50 recorded for this molecule, C[C@]12CC[C@@H]3c4ccc(O)cc4CC[C@H]3[C@@H]1CC[C@@]2(O)c1cn(Cc2cc(O)cc(Cn3cc([C@]4(O)CC[C@H]5[C@@H]6CCc7cc(O)ccc7[C@H]6CC[C@@]54C)nn3)c2)nn1 , is 3570

// COc1c(Cn2cc([C@]3(O)CC[C@H]4[C@@H]5CCc6cc(O)ccc6[C@H]5CC[C@@]43C)nn2)cc(C)cc1Cn1cc([C@]2(O)CC[C@H]3[C@@H]4CCc5cc(O)ccc5[C@H]4CC[C@@]32C)nn1 : IC50 value = 1770

For reference, reported IC50 for CC(=O)Oc1cc(Cn2cc([C@]3(O)CC[C@H]4[C@@H]5CCc6cc(O)ccc6[C@H]5CC[C@@]43C)nn2)cc(Cn2cc([C@]3(O)CC[C@H]4[C@@H]5CCc6cc(O)ccc6[C@H]5CC[C@@]43C)nn2)c1 stands at 2060

---

- System: HCT116p53−/− (p53 gene null variant of HCT116)
- measurement_protocol: MTS cytotoxicity assay, HCT116p53−/−
- Type: cell-based
- conditions: Homo sapiens, HCT-116, 72 h, read-out: IC50 cytotoxic activity HCT116p53-
readout: pIC50
Hey, just a heads up that pIC50 is the negative log base 10 of the concentration in molar.

pIC50 reported for this molecule CC(=O)Oc1c(Cn2cc([C@]3(O)CC[C@H]4[C@@H]5CCc6cc(O)ccc6[C@H]5CC[C@@]43C)nn2)cc(C)cc1Cn1cc([C@]2(O)CC[C@H]3[C@@H]4CCc5cc(O)ccc5[C@H]4CC[C@@]32C)nn1 : 5.75

Please fill in: pIC50 reported for Cc1cc(Cn2cc([C@]3(O)CC[C@H]4[C@@H]5CCc6cc(O)ccc6[C@H]5CC[C@@]43C)nn2)c(O)c(Cn2cc([C@]3(O)CC[C@H]4[C@@H]5CCc6cc(O)ccc6[C@H]5CC[C@@]43C)nn2)c1 = 5.73

Short answer for CC(=O)Oc1cc(Cn2cc([C@]3(O)CC[C@H]4[C@@H]5CCc6cc(O)ccc6[C@H]5CC[C@@]43C)nn2)cc(Cn2cc([C@]3(O)CC[C@H]4[C@@H]5CCc6cc(O)ccc6[C@H]5CC[C@@]43C)nn2)c1 : pIC50 was 5.67

Entry C[C@]12CC[C@@H]3c4ccc(O)cc4CC[C@H]3[C@@H]1CC[C@@]2(O)c1cn(Cc2cc(O)cc(Cn3cc([C@]4(O)CC[C@H]5[C@@H]6CCc7cc(O)ccc7[C@H]6CC[C@@]54C)nn3)c2)nn1 ; pIC50 = 5.37

Record COc1c(Cn2cc([C@]3(O)CC[C@H]4[C@@H]5CCc6cc(O)ccc6[C@H]5CC[C@@]43C)nn2)cc(C)cc1Cn1cc([C@]2(O)CC[C@H]3[C@@H]4CCc5cc(O)ccc5[C@H]4CC[C@@]32C)nn1 . Reported pIC50: 5.70

---

Please go through the items and note down their IC50.
- System: CCRF-CEM (childhood T-cell acute lymphoblastic leukaemia)
- measurement_protocol: MTS cytotoxicity assay, CCRF-CEM
- Assay type: cell-based
- conditions: Homo sapiens, 72 h, read-out: IC50 cytotoxic activity CCRF-CEM
Numbers only here, please. The scale is µM.

The compound listed as CC(=O)Oc1c(Cn2cc([C@]3(O)CC[C@H]4[C@@H]5CCc6cc(O)ccc6[C@H]5CC[C@@]43C)nn2)cc(C)cc1Cn1cc([C@]2(O)CC[C@H]3[C@@H]4CCc5cc(O)ccc5[C@H]4CC[C@@]32C)nn1 has a reported IC50 of 1.29

response.value for C[C@]12CC[C@@H]3c4ccc(O)cc4CC[C@H]3[C@@H]1CC[C@@]2(O)c1cn(Cc2cccc(Cn3cc([C@]4(O)CC[C@H]5[C@@H]6CCc7cc(O)ccc7[C@H]6CC[C@@]54C)nn3)c2)nn1 (field: IC50) = 1.6

Data point: C[C@]12CC[C@@H]3c4ccc(O)cc4CC[C@H]3[C@@H]1CC[C@@]2(O)c1cn(Cc2ccc(O)c(Cn3cc([C@]4(O)CC[C@H]5[C@@H]6CCc7cc(O)ccc7[C@H]6CC[C@@]54C)nn3)n2)nn1 ; IC50 = 6.14

In plain terms, C[C@]12CC[C@@H]3c4ccc(O)cc4CC[C@H]3[C@@H]1CC[C@@]2(O)c1cn(Cc2cc(O)cc(Cn3cc([C@]4(O)CC[C@H]5[C@@H]6CCc7cc(O)ccc7[C@H]6CC[C@@]54C)nn3)c2)nn1 has a documented IC50 of 1.7

Short answer for Cc1cc(C)c(Cn2cc([C@]3(O)CC[C@H]4[C@@H]5CCc6cc(O)ccc6[C@H]5CC[C@@]43C)nn2)cc1Cn1cc([C@]2(O)CC[C@H]3[C@@H]4CCc5cc(O)ccc5[C@H]4CC[C@@]32C)nn1 : IC50 was 1.69

Form: compound = COc1c(Cn2cc([C@]3(O)CC[C@H]4[C@@H]5CCc6cc(O)ccc6[C@H]5CC[C@@]43C)nn2)cc(C)cc1Cn1cc([C@]2(O)CC[C@H]3[C@@H]4CCc5cc(O)ccc5[C@H]4CC[C@@]32C)nn1 ; IC50 = 1.38

The reported IC50 of the compound Cc1cc(Cn2cc([C@]3(O)CC[C@H]4[C@@H]5CCc6cc(O)ccc6[C@H]5CC[C@@]43C)nn2)c(O)c(Cn2cc([C@]3(O)CC[C@H]4[C@@H]5CCc6cc(O)ccc6[C@H]5CC[C@@]43C)nn2)c1 was 1.54

Lab note: CC(=O)Oc1cc(Cn2cc([C@]3(O)CC[C@H]4[C@@H]5CCc6cc(O)ccc6[C@H]5CC[C@@]43C)nn2)cc(Cn2cc([C@]3(O)CC[C@H]4[C@@H]5CCc6cc(O)ccc6[C@H]5CC[C@@]43C)nn2)c1 gave IC50 of 1.09

---

- Test system: CCRF-CEM lymphoblasts
- measurement_protocol: BrU incorporation analysis (RNA synthesis)
- Assay type: cell-based, human
- conditions: 5×IC50, 24 h
Answer 0 if BrU, % of positive cells is under 40%, and 1 if it is 40% or more.

Q: Does the reported BrU, % of positive cells for COc1c(Cn2cc([C@]3(O)CC[C@H]4[C@@H]5CCc6cc(O)ccc6[C@H]5CC[C@@]43C)nn2)cc(C)cc1Cn1cc([C@]2(O)CC[C@H]3[C@@H]4CCc5cc(O)ccc5[C@H]4CC[C@@]32C)nn1 fall at or above the 40% mark?
Ans: 0

Q: Quick check, BrU, % of positive cells >= 40%? COc1cc2c(cc1O)CC[C@@H]1[C@@H]2CC[C@]2(C)[C@@H](O)CC[C@@H]12 [ME, 2-methoxyestradiol, reference compound]
Ans: 1

Q: Evaluate COc1cc(Cn2cc([C@]3(O)CC[C@H]4[C@@H]5CCc6cc(O)ccc6[C@H]5CC[C@@]43C)nn2)cc(Cn2cc([C@]3(O)CC[C@H]4[C@@H]5CCc6cc(O)ccc6[C@H]5CC[C@@]43C)nn2)c1 : BrU, % of positive cells at minimum 40%?
Ans: 1

---

Please provide measured IC50 at 72 h for the entries that follow.
- measurement_protocol: MTS cytotoxicity assay, MRC-5
- Type: cell-based
- conditions: human, MRC-5 cells (non-tumour fibroblasts); MTS assay, 72-h incubation, mean ± SD of 3 independent experiments; read-out: IC50 cytotoxic activity MRC-5

Lab book: IC50 at 72 h of C#C[C@]1(O)CC[C@H]2[C@@H]3CCc4cc(O)ccc4[C@H]3CC[C@@]21C [EE, 17α-ethinylestradiol, reference compound] noted as > 50 µM

Recorded result, COc1cc(Cn2cc([C@]3(O)CC[C@H]4[C@@H]5CCc6cc(O)ccc6[C@H]5CC[C@@]43C)nn2)cc(Cn2cc([C@]3(O)CC[C@H]4[C@@H]5CCc6cc(O)ccc6[C@H]5CC[C@@]43C)nn2)c1 , IC50 at 72 h: > 50 µM

The compound listed as C[C@]12CC[C@@H]3c4ccc(O)cc4CC[C@H]3[C@@H]1CC[C@@]2(O)c1cn(Cc2cc(Cn3cc([C@]4(O)CC[C@H]5[C@@H]6CCc7cc(O)ccc7[C@H]6CC[C@@]54C)nn3)cc(OCCO)c2)nn1 shows IC50 at 72 h equal to > 50 µM

Query C[C@]12CC[C@@H]3c4ccc(O)cc4CC[C@H]3[C@@H]1CC[C@@]2(O)c1cn(Cc2cccc(Cn3cc([C@]4(O)CC[C@H]5[C@@H]6CCc7cc(O)ccc7[C@H]6CC[C@@]54C)nn3)n2)nn1 [ED, reference compound] yields IC50 at 72 h of 1.16 µM

Consider COc1cc2c(cc1O)CC[C@@H]1[C@@H]2CC[C@]2(C)[C@@H](O)CC[C@@H]12 [ME, 2-methoxyestradiol, reference compound] . Its measured IC50 at 72 h is > 50 µM
